Molecular target: CYP3A4 (Homo sapiens, UniProt P08684)
Sequence (P08684 whole entry): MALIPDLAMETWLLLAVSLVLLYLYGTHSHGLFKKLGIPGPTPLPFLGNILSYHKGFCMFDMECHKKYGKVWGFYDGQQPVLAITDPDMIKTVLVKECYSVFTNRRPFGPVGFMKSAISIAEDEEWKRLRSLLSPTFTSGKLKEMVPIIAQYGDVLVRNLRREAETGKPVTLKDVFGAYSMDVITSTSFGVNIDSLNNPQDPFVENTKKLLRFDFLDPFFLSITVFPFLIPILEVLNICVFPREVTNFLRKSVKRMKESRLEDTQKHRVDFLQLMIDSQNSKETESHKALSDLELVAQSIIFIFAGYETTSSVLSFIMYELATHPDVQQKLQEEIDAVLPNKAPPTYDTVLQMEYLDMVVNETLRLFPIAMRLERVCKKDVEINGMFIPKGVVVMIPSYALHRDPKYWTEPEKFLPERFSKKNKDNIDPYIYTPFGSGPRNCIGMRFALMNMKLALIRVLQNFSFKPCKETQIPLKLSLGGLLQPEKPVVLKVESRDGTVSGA
Assay: Determination of CYP3A4 inhibitory activity (human liver microsome, Luciferin-IPA)
Conditions: CYP3A4 IC50 (nM), 37° C. 11 minutes
Experimental: The standard final Compound concentrations were 37, 111, 333, 1000, and 3000 nM. 12.5 μL of the Compound dilutions were transferred to a white 96-well plate. […] 25 μL of the buffer was added to each well. The plates were incubated at 37° C. for 11 minutes. 50 μL of luciferin detection reagent (Promega V9002) was added and the plates were incubated at room temperature for 5 minutes. The plate was read with a luminometer. […]
Measurement type: IC50

compound=COc1cncc(CN(CCc2ccc(NC(=O)c3cc(OC)c(OC)cc3NC(=O)c3cc(=O)c4ccccc4o3)cc2)Cc2ccc3c(cnn3C)c2)c1 measurement_type=IC50 result="100 to 250 nM"
compound=COc1cc2c(cc1OC)CN(CCc1ccc(NC(=O)c3ccc(C(=O)OCc4ccncc4)cc3NC(=O)c3cc(=O)c4ccccc4o3)cc1)CC2 measurement_type=IC50 result="> 1000 nM"
compound=COc1cc(NC(=O)c2cc(=O)c3ccccc3o2)c(C(=O)Nc2ccc(CCN(C)Cc3cc(-n4cnc(C)c4)ccc3C)cc2)cc1OC measurement_type=IC50 result="250 to 500 nM"

Go through the items and report each one's IC50.
1. COc1cc(NC(=O)c2cc(=O)c3ccccc3o2)c(C(=O)Nc2ccc(CCN(Cc3cncc(C)c3)Cc3ccc4c(c3)c(C)nn4C)cc2)cc1OC
2. CCN(CCc1ccc(NC(=O)c2cc(OC)c(OC)cc2NC(=O)c2cc(=O)c3ccccc3o2)cc1)Cc1ccc(-c2ccco2)cc1
3. COc1cncc(CN(CCc2ccc(NC(=O)c3cc(OC)c(OC)cc3NC(=O)c3cc(=O)c4cc(C)ccc4o3)cc2)Cc2ccc3c(cnn3C)c2)c1

1: 100 to 250 nM; 2: > 1000 nM; 3: 250 to 500 nM
